Listed binders paired with reported EC50
TEST SYSTEM: T1, human CXCR3 (human, UniProt P49682 1-368)
T1 construct: whole, on cells; also called hu-CXCR3; C-X-C chemokine receptor 3
T1 sequence (looked up): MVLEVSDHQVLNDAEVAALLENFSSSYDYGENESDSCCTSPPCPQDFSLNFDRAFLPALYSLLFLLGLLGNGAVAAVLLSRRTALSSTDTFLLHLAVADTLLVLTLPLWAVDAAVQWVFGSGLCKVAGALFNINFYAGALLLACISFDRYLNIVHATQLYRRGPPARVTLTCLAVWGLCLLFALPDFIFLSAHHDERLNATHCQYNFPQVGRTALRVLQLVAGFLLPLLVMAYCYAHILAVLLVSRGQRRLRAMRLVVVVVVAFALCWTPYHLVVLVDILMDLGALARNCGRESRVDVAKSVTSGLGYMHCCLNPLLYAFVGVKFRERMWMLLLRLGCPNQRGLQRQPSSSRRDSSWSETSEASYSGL
MEASUREMENT PROTOCOL: flow cytometry, antibody titration on CHO-CXCR3 cells
Response body: numeric value in nM, unit text excluded.

1) 32D12 (antibody, V domains shown, Fully human IgG class) VH: EVQLLESGGGLVQPGGSQRLSCAASGFTFSSYPMTWVRQAPGKGLEWVSAISDGGSGTYYADSVKGRFTISRDNSKNTLYLQMNSLRAEDTAIYYCARYKMGGSYRGLDDWGQGTLVTVSS VL: LPVLTQPASVSGSPGQPITISCTGTSGNIGSYNYVSWYQQHPGKAPRLLIYDVSLRPSGISSHFSGSKSGNTASLTISGLQAEDEAEYFCLSWTSDKTYVFGSGTKLTVL
4

Now, please, on to the next binder.
Suppose we examine the binder 3A3 (antibody, V domains shown, Fully human IgG class) VH: QVQLVQSGAEVKKPGSSVKVSCKASGGTFNRYAFSWVRQAPGQGPELMGRIMPMFDIASYAQKFQGRLTITADKSTSTAYMELSSLRSDDTAVYYCTQVSGDSDYWGPGTLVTVSS VL: DIVMTQTPLSLPVTLGQPASISCRSSQSLVHNDGNTYLNWFHQRPGQSPRRLIYKVSNRDFGVPDRFSGSGSGTDFTLRISRVEAEDVGVYYCMQGSHWPLTFGGGTKVEIK ; what EC50 value has been reported?
0.5
